The reported measurements were obtained from patent US20220281976A1.

Percent RBC Binding to CD33: recorded values
Target: T1, human CD33 Fc fusion protein (human, UniProt P20138 18-259)
T1 construct: also called hCD33-Fc; human CD33/Fc chimera (R&D Systems)
T1 sequence (P20138 18-259 limits assumed): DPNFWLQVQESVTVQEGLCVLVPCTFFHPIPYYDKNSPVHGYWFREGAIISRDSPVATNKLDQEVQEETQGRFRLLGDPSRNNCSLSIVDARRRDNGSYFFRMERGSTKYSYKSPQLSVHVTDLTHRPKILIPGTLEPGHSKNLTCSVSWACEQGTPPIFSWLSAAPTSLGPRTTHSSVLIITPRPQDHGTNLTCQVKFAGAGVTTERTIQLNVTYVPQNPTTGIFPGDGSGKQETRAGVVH
Assay: RBC adhesion to plate-bound CD33-Fc; antibody 1.0 ug/ml;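 further: red blood cells adhering to plate-coated CD33-Fc after 1 h antibody pretreatment, then 1 h at room temperature, bound cells read as peroxidase activity after lysis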
// units = %; emit number, no label

Take a look at these entries with their results.
binder | recorded endpoint | measured
C-9 (antibody, V domains shown, human IgG1) VH: QLQLQESGPGLVKPSETLSLTCTVSGGSISSSSYYWGWIRQPPGKGLEWIGSIYYSGSTYYNPSLKSRVTISVDTSKNQFSLKLSSVTAADTAVYYCARESGFAGLDPWGQGTLVTVSS VL: EIVLTQSPGTLSLSPGERATLSCRASQSVSSSFLAWYQQKPGQAPRLLIYGASSRATGIPDRFSGSGSGTDFTLTISRLEPEDFAVYYCQQSEDWPTFGGGTKVEIK | Percent RBC Binding to CD33 | 20
C-51 (antibody, V domains shown, human IgG1) VH: QLQLQESGPGLVKPSETLSLTCTVSGGSISSSSYYWGWIRQPPGKGLEWIGSIYYSGSTYYNPSLKSRVTISVDTSKNQFSLKLSSVTAADTAVYYCARGAPHDYGGGVGWFDPWGQGTTVTVSS VL: DIQMTQSPSSVSASVGDRVTITCRASQGISSWLAWYQQKPGKAPKLLIYAASNLQSGVPSRFSGSGSGTDFTLTISSLQPEDFATYYCQQSRVFPWTFGGGTKVEIK | Percent RBC Binding to CD33 | 129

Input: Please look at this binder and report its Percent RBC Binding to CD33: C-87 (antibody, V domains shown, human IgG1) VH: QLQLQESGPGLVKPSETLSLTCTVSGGSISSSSYAWGWIRQPPGKGLEWIGSIYYSGSTYYNPSLKSRVTISVDTSKNQFSLKLSSVTAADTAVYYCARDPLYPLTPYGMDVWGQGTTVTVSS VL: EIVMTQSPATLSLSPGERATLSCRASQSVSSYLAWYQQKPGQAPRLLIYDASNRATGIPARFSGSGSGTDFTLTISSLEPEDFAVYYCQQLSVFPPTFGGGTKVEIK
Output: 9.5
